// Ki lookup, one value per entry
- assaySystem: Human α2δ-1 subunit of Cav2.2 calcium channel (Homo sapiens)
- procedureText: Human α2δ-1 subunit of Cav2.2 calcium channel assay ([3H]-gabapentin binding)
- testSettings: binding to the α2δ-1 subunit of voltage-gated calcium channels, expressed as Ki class; + also covers inhibition between 1% and 50%
readoutName: Ki

In [3]: df
Out[3]:
                                   molecule     result
0  CCC[C@@H](c1nc2cc(Cl)c(Cl)cc2c(=O)n1CC)N1CCN(C)C[C@H](C)C1 [Example 133]  > 5000 nM
1  CCC[C@@H](c1nc2ccc(Br)cc2c(=O)n1CC)N1CCN[C@@H](C)CC1 [Example 95]  > 5000 nM
2  CCCC(c1nc2ccc(Br)cc2c(=O)n1CC(C)C)N1CCCN(C)CC1 (stereo not drawn) [Example 54]   < 500 nM
3  CCC[C@H](c1nc2ncc(F)cc2c(=O)n1CC1CC1)N1CCN[C@@H](C)CC1 [Example 195]   < 500 nM
4  CCC[C@@H](c1nc2ncc(Br)cc2c(=O)n1CC)N1CCNC[C@@H](C)C1 [Example 198]  > 5000 nM
5  CCCC(c1nc2ccc(O)cc2c(=O)n1CC)N1CCCN(C)CC1 (stereo not drawn) [Example 203]   < 500 nM
6  CCC[C@H](c1nc2ccncc2c(=O)n1CC)N1CCNC[C@@H](C)C1 [Example 165]   < 500 nM
7  CCCC(c1nc2cnccc2c(=O)n1CC)N1CCCN(C)CC1 (stereo not drawn) [Example 17]   < 500 nM
8  CCCC(c1nc2ccc(Br)cc2c(=O)n1CC)N1CCN2CCC1CC2 (stereo not drawn) [Example 80]  > 5000 nM

###

- assaySystem: Human α2δ-1 subunit of Cav2.2 calcium channel (Homo sapiens)
- procedureText: Human α2δ-1 subunit of Cav2.2 calcium channel assay ([3H]-gabapentin binding)
- testSettings: binding to the α2δ-1 subunit of voltage-gated calcium channels, expressed as Ki class; + also covers inhibition between 1% and 50%
pKi: −log10 of the molar value.
Below, each entry is listed with its recorded pKi.
readoutName: pKi

                                   molecule  result
0  CCC[C@@H](c1nc2ccc(Br)cc2c(=O)n1CC)N1CCN(C)C[C@@H](C)C1 [Example 38]  < 5.30
1  CCC[C@H](c1nc2ccc(F)cc2c(=O)n1C)N1CCN[C@H](C)CC1 [Example 255]  < 5.30
2  CCCC(c1nc2cc(F)c(Br)cc2c(=O)n1CC)N1CCCNCC1 (stereo not drawn) [Example 27]  > 6.30
3  CCCC(c1nc2cc(F)c(Br)cc2c(=O)n1CCC)N1CCCNCC1 (stereo not drawn) [Example 34]  > 6.30
4  CCCC(c1nc2cc(Cl)c(Cl)cc2c(=O)n1CC)N1CCCN(C)CC1 (stereo not drawn) [Example 87]  > 6.30
5  CCCC(c1nc2cc(Br)ccc2c(=O)n1CC)N1CCCN(C)CC1 (stereo not drawn) [Example 3]  > 6.30
6  CCC[C@H](c1nc2cc(F)c(Br)cc2c(=O)n1CC)N1CCNC[C@@H](C)C1 [Example 97]  > 6.30
7  CCC[C@H](c1nc2cc(F)c(OC)cc2c(=O)n1CC)N1CCCN(C)CC1 [Example 220]  > 6.30
8  CCCC(c1nc2cc(C)ccc2c(=O)n1CC)N1CCCN(C)CC1 (stereo not drawn) [Example 11]  > 6.30

###

- assaySystem: Human σ1 receptor (Homo sapiens, UniProt Q99720)
- Sequence (Q99720 whole entry): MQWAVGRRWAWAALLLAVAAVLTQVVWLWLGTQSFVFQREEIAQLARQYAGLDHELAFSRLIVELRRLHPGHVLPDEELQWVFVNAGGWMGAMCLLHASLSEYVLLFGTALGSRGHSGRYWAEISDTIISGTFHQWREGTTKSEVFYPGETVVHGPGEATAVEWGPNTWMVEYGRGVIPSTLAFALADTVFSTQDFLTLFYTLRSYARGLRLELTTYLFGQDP
readoutName: Ki

>>> print(df.to_string())
                                    compound                               assaysystem          result
 0  CCC[C@H](c1nc2ccc(F)cc2c(=O)n1CC)N1CCCNC(C)(C)C1  Human σ1 receptor (Homo sapiens, UniProt Q99720)  500 to 1000 nM
 1  CCC[C@H](c1nc2ccc(I)cc2c(=O)n1CC)N1CCCN(C)CC1  Human σ1 receptor (Homo sapiens, UniProt Q99720)  500 to 1000 nM
 2  CCCC(c1nc2ccc(Br)c(F)c2c(=O)n1CC)N1CCCN(C)CC1 (centres unmarked)  Human σ1 receptor (Homo sapiens, UniProt Q99720)        < 500 nM
 3  CCC[C@H](c1nc2ccc(Br)cc2c(=O)n1CC)N1CCN2CCC1CC2  Human σ1 receptor (Homo sapiens, UniProt Q99720)       > 1000 nM
 4  CCCC(c1nc2ccc(Br)cc2c(=O)n1CC(=O)O)N1CCCN(C)CC1 (centres unmarked)  Human σ1 receptor (Homo sapiens, UniProt Q99720)       > 1000 nM
 5  CCC[C@H](c1nc2ccc(Br)cc2c(=O)n1CC)N1CCN(C)C[C@H](COC)C1  Human σ1 receptor (Homo sapiens, UniProt Q99720)       > 1000 nM
 6  CCCC(c1nc2ccc(Br)cc2c(=O)n1CC)N1CCCN(C)CC1 (centres unmarked)  Human σ1 receptor (Homo sapiens, UniProt Q99720)        < 500 nM
 7  CCC[C@H](c1nc2c(F)cc(F)cc2c(=O)n1CC)N1CCN[C@H](C)CC1  Human σ1 receptor (Homo sapiens, UniProt Q99720)       > 1000 nM
 8  CCC[C@@H](c1nc2ccc(Br)cc2c(=O)n1CC)N1CCCN[C@H](C)C1  Human σ1 receptor (Homo sapiens, UniProt Q99720)  500 to 1000 nM
 9  CCC[C@H](c1nc2c(F)cc(F)cc2c(=O)n1CC)N1CCCN(C)CC1  Human σ1 receptor (Homo sapiens, UniProt Q99720)  500 to 1000 nM
10  CCC[C@H](c1nc2cc(OC)c(F)cc2c(=O)n1CC)N1CCCN(CC)CC1  Human σ1 receptor (Homo sapiens, UniProt Q99720)  500 to 1000 nM
11  CCCC(c1nc2ccc(Br)cc2c(=O)n1CC)N1CCNCC(C)(C)C1 (centres unmarked)  Human σ1 receptor (Homo sapiens, UniProt Q99720)  500 to 1000 nM
12  CCCC(c1nc2c(Cl)cc(F)cc2c(=O)n1CC)N1CCCN(CC)CC1 (centres unmarked)  Human σ1 receptor (Homo sapiens, UniProt Q99720)       > 1000 nM
13  CCCC(c1nc2ccc(Cl)cc2c(=O)n1CCC)N1CCCN(C)CC1 (centres unmarked)  Human σ1 receptor (Homo sapiens, UniProt Q99720)  500 to 1000 nM
14  CCC[C@@H](c1nc2cc(F)c(Cl)cc2c(=O)n1CC)N1CCNC[C@H](C)C1  Human σ1 receptor (Homo sapiens, UniProt Q99720)       > 1000 nM
15  CCCC(c1nc2ccc(NC3CCN(C)CC3)cc2c(=O)n1CC)N1CCCN(C)CC1 (centres unmarked)  Human σ1 receptor (Homo sapiens, UniProt Q99720)       > 1000 nM
16  CCCC(c1nc2cc(Br)ccc2c(=O)n1CC)N1CCCNCC1 (centres unmarked)  Human σ1 receptor (Homo sapiens, UniProt Q99720)       > 1000 nM

###

pKi: −log10 of the molar value.
// Human σ1 receptor (Homo sapiens, UniProt Q99720) pKi records
readoutName: pKi

In [3]: df
Out[3]:
                                   compound  result
0  CCC[C@@H](c1nc2ccc(Br)cc2c(=O)n1CC)N1CCN(C)C[C@H](C)C1  < 6.00
1  CCC[C@@H](c1nc2ncc(Br)cc2c(=O)n1CC)N1CCNC[C@H](C)C1  < 6.00
2  CCCC(c1nc2cc(C)c(Br)cc2c(=O)n1CC)N1CCCNCC1 (stereo not shown)  < 6.00
3  CCC[C@H](c1nc2ccc(F)cc2c(=O)n1CC1CC1)N1CCCN(CC)CC1  > 6.30

###

pKi by entry:
- assaySystem: Human α2δ-1 subunit of Cav2.2 calcium channel (Homo sapiens, UniProt P54289)
- Sequence (P54289 25-1103): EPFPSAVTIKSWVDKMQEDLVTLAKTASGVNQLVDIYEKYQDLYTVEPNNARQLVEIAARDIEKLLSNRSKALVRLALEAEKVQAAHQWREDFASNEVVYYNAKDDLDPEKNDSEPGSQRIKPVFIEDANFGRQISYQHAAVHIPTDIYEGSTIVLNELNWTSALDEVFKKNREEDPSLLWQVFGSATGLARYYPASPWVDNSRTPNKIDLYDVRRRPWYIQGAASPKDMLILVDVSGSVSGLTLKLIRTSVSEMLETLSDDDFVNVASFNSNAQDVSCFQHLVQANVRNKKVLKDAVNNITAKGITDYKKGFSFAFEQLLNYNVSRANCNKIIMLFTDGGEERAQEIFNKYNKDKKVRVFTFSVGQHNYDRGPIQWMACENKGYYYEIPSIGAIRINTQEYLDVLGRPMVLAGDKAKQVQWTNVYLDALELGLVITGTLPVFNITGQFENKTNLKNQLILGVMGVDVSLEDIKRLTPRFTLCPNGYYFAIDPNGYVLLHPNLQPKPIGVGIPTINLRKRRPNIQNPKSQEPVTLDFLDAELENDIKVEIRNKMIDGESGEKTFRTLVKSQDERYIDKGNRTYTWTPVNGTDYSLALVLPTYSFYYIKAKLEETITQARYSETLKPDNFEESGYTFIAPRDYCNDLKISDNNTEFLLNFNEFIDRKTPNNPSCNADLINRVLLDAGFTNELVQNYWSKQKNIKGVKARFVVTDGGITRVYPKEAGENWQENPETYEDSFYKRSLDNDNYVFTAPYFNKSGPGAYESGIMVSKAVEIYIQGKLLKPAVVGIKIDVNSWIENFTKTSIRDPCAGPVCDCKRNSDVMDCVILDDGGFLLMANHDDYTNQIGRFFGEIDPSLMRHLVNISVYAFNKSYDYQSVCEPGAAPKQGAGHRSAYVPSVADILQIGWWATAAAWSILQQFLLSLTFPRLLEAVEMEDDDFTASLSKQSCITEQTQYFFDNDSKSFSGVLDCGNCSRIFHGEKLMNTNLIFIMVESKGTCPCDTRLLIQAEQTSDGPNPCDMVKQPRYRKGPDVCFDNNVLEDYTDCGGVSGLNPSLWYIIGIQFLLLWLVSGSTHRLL
- procedureText: Human α2δ-1 subunit of Cav2.2 calcium channel assay ([3H]-gabapentin binding)
- testSettings: binding to the α2δ-1 subunit of voltage-gated calcium channels, expressed as Ki class; + also covers inhibition between 1% and 50%
- Method: Human α2δ-1 Subunit of Cav2.2 Calcium Channel Assay Human α2δ-1 enriched membranes (2.5 μg) were incubated with 15 nM of radiolabeled [^3H]-Gabapentin in assay buffer containing Hepes-KOH 10 mM. pH 7.4. NSB (non specific binding) was measured by adding 10 μM pregabalin. […] Filter plates were dried at 60° C. for 1 h and 30 μL of scintillation cocktail were added to each well before radioactivity reading. Readings were performed in a Trilux 1450 Microbeta radioactive counter (Perkin Elmer).
pKi: −log10 of the molar value.
readoutName: pKi

>>> print(df.to_string())
                                    molecule  readoutname        result
 0  CCCC(c1nc2ncc(F)cc2c(=O)n1CC1CC1)N1CCN[C@@H](C)CC1 (single isomer, unassigned)          pKi        < 5.30
 1  CCC[C@H](c1nc2cc(F)c(Br)cc2c(=O)n1CC)N1CCN(C)C[C@@H](C)C1          pKi        > 6.30
 2  CCCC(c1nc2ccc(Br)c(Cl)c2c(=O)n1CC)N1CCCNCC1 (centres unmarked)          pKi  5.30 to 6.30
 3  CCC[C@@H](c1nc2ccc(Br)cc2c(=O)n1CC)N1CCCN(CC)CC1          pKi        < 5.30
 4  CCC[C@H](c1nc2cc(F)c(Br)cc2c(=O)n1CC)N1CCCNCC1          pKi        > 6.30
 5  CCCC(c1nc2ccc(Br)cc2c(=O)n1CC)N1CCN(C)CC(C)(C)C1 (centres unmarked)          pKi        < 5.30
 6  CCC[C@@H](c1nc2c(F)cc(Br)cc2c(=O)n1CC)N1CCCN(C)CC1          pKi        < 5.30
 7  CCCCn1c([C@@H](CCC)N2CCCN(C)CC2)nc2ccc(F)cc2c1=O          pKi        > 6.30
 8  CCCC(c1nc2cccnc2c(=O)n1CC)N1CCCN(C)CC1 (centres unmarked)          pKi        < 5.30
 9  CCCC(c1nc2ccc(F)c(F)c2c(=O)n1CC)N1CCCNCC1 (centres unmarked)          pKi        > 6.30
10  CCC[C@@H](c1nc2ccc(Br)cc2c(=O)n1CC)N1CCN(C)C[C@H](C)C1          pKi        < 5.30
11  CCC[C@@H](c1nc2ccc(Br)cc2c(=O)n1CC)N1CCNC[C@H](O)C1          pKi        < 5.30
12  CCCC(c1nc2ccc(F)c(F)c2c(=O)n1CC)N1CCCN(CC)CC1 (centres unmarked)          pKi  5.30 to 6.30
13  CCC[C@@H](c1nc2ccc(Cl)cc2c(=O)n1C)N1CCCN[C@@H](C)C1          pKi        < 5.30
14  CCCC(c1nc2ccncc2c(=O)n1CC)N1CCCN(C)CC1 (centres unmarked)          pKi        > 6.30
15  CCCC(c1nc2ccc(Cl)cc2c(=O)n1CC)N1CCCN(C)CC1 (centres unmarked)          pKi        > 6.30
16  CCC[C@@H](c1nc2ccc(Br)cc2c(=O)n1CC)N1CCN[C@H](C)CC1          pKi  5.30 to 6.30
17  CCC[C@H](c1nc2ccc(Br)cc2c(=O)n1CC)N1CCNC[C@@H](O)C1          pKi        > 6.30
18  CCC[C@H](c1nc2cc(Cl)c(Cl)cc2c(=O)n1CC)N1CCN(C)C[C@@H](C)C1          pKi        > 6.30
19  CCC[C@@H](c1nc2cc(F)c(Br)cc2c(=O)n1CC)N1CCN(C)C[C@H](C)C1          pKi        < 5.30
20  CCC[C@@H](c1nc2ccc(Br)cc2c(=O)n1CCC)N1CCNC[C@H](C)C1          pKi  5.30 to 6.30
21  CCC[C@H](c1nc2ccc(F)cc2c(=O)n1C)N1CCCN(CC)CC1          pKi        < 5.30
22  CCC[C@H](c1nc2ccc(Cl)cc2c(=O)n1CC)N1CCN(C)C[C@H](C)C1          pKi        > 6.30
23  CCC[C@H](c1nc2ccncc2c(=O)n1CC)N1CCN(C)C[C@H](C)C1          pKi        > 6.30
24  CCC[C@H](c1nc2ccncc2c(=O)n1CC)N1CCN(C)C[C@@H](C)C1          pKi        > 6.30
25  CCCC(c1nc2ncc(F)cc2c(=O)n1CC1CC1)N1CCCN(CC)CC1 (centres unmarked)          pKi        > 6.30
26  CCC[C@H](c1nc2ccc(F)c(F)c2c(=O)n1CC)N1CCN[C@@H](C)CC1          pKi        > 6.30
27  CCC[C@H](c1nc2ccncc2c(=O)n1CC)N1CCCN(C)CC1          pKi        > 6.30
28  CCCC(c1nc2cc(F)c(Cl)cc2c(=O)n1CC)N1CCCNCC1 (centres unmarked)          pKi        > 6.30
